SYSTEM_NAME: PRMT5 (Homo sapiens, UniProt O14744)
Construct: seeded with 4000 MCF-7 cells in 30 μl media; endogenous in cells
Sequence (O14744 whole entry): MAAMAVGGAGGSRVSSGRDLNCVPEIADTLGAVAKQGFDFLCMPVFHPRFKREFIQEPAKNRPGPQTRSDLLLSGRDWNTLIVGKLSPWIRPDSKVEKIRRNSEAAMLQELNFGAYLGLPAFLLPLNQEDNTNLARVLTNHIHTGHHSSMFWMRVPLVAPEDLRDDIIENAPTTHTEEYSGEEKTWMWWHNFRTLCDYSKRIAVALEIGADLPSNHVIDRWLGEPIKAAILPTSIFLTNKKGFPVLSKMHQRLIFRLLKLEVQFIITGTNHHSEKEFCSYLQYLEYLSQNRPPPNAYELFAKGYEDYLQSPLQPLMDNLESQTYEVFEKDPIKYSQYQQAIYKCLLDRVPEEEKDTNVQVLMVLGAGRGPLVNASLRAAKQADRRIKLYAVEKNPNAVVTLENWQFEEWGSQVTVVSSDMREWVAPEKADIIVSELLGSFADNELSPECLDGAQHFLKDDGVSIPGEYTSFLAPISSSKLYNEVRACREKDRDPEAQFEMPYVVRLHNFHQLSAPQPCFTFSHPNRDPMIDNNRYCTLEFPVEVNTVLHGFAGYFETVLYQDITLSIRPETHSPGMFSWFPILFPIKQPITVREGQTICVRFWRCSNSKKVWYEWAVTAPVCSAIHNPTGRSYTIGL
Sequence (Q9BQA1 whole entry partner): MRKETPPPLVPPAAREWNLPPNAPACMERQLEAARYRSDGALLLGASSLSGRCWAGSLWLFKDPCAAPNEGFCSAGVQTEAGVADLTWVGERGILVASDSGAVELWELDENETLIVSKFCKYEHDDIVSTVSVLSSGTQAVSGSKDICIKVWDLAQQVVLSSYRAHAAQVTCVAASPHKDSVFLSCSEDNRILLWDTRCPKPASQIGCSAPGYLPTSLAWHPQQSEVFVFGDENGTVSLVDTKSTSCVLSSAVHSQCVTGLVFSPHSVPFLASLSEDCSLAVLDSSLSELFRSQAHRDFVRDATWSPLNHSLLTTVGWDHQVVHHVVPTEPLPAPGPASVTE
ASSAY_EXPLANATION: PRMT5 Cell Target Engagement (TE) Assay
MEASUREMENT_CONDITIONS: MCF-7 cells, treated for 3 days, symmetric dimethylation of arginine (SDMA) by high content imaging
PARAMETER_MEASURED: EC50

Some compounds with known EC50 results, for comparison:
[
  {
    "COMPOUND": "CC(=O)N1CCC(Nc2cc(C(=O)N3CCC(N4CCc5ccccc5C4)C(O)C3(C)C)ccn2)CC1 (single isomer, unassigned) [Example 22]",
    "EC50": "> 10 µM"
  },
  {
    "COMPOUND": "O=C(c1cn2cc(Br)c(O)nc2n1)N1CC[C@H](N2CCc3ccccc3C2)[C@@H](O)C1",
    "EC50": "> 10 µM"
  }
]

Please find the next compound below.
Request - read-out EC50 | tested on PRMT5 (Homo sapiens, UniProt O14744) | compound O=C(c1ccc(OCC(F)(F)F)nc1)N1CC[C@@H](N2CCc3ccccc3C2)[C@H](O)C1
> 10 µM

These measurements were taken from patent US12595248B2.
